target: T1, 383 amino acid recombinant tau (UniProt P10636-6 1-383, biotinylated where printed as biotin-rTau383 (position not given)); assay: relative binding affinity, method not named (Table 4)
T1 construct: also called rTau383
T1 sequence (P10636 other isoform, or with tags, fused parts or gaps limits assumed): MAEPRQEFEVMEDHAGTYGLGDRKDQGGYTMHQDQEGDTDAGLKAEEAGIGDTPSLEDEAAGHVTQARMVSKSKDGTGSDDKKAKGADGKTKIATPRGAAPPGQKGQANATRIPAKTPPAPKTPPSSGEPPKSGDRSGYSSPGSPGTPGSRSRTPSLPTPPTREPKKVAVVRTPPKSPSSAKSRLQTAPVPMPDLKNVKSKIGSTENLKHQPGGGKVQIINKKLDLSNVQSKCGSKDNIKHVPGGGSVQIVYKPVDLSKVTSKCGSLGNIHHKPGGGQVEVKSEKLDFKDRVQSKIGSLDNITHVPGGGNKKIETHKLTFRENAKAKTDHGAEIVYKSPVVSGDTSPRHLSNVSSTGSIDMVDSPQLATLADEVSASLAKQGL
RESULT TYPE: Kd (nM)
Respond with the bare value in nM.

Suppose we examine the binder VH4/Vk3 (antibody, V domains shown, member of the group m7; also called humanized IPN002 variant VH4/Vk3) VH: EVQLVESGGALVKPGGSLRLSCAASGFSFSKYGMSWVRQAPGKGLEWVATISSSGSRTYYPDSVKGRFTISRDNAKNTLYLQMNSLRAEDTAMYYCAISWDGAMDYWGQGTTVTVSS VL: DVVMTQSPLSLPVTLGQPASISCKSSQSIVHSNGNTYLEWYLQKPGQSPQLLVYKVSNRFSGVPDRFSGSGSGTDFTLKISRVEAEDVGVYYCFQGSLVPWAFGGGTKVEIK ; what Kd value has been reported?
0.276

Could you do the same for humanized IPN002 variant VH2/Vk2 (antibody, V domains shown) VH: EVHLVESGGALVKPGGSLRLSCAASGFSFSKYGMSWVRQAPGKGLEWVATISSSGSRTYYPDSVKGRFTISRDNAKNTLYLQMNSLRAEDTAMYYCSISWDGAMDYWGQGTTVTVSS VL: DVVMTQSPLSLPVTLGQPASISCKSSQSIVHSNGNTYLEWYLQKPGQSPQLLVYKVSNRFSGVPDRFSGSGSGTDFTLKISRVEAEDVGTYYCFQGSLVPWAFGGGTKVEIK , please?
0.199

Could you do the same for VH4/Vk4 (antibody, V domains shown, member of the group m7; also called humanized IPN002 variant VH4/Vk4) VH: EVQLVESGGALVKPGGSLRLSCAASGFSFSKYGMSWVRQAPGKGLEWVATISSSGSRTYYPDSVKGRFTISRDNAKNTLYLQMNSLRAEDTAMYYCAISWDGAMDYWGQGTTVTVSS VL: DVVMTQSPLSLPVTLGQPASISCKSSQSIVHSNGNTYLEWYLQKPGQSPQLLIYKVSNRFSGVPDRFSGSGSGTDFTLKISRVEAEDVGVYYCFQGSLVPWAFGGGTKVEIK , please?
0.379

Could you do the same for VH3/Vk1 (antibody, V domains shown, member of the group m7; also called humanized IPN002 variant VH3/Vk1) VH: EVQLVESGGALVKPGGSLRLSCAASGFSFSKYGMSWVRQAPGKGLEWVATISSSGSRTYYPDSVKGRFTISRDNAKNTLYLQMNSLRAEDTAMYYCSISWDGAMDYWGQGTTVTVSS VL: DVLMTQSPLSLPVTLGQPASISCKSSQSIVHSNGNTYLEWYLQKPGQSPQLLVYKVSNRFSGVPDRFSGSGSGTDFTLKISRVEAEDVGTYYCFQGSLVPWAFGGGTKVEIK , please?
0.236

Could you do the same for VH3/Vk3 (antibody, V domains shown, member of the group m7; also called humanized IPN002 variant VH3/Vk3) VH: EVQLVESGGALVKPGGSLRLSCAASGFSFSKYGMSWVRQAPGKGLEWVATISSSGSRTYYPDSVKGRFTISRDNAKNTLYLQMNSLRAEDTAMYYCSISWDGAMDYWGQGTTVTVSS VL: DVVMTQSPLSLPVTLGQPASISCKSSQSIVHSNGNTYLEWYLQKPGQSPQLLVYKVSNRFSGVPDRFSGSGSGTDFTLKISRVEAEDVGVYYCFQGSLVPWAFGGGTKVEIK , please?
0.224

Could you do the same for VH4/Vk1 (antibody, V domains shown, member of the group m7; also called humanized IPN002 variant VH4/Vk1) VH: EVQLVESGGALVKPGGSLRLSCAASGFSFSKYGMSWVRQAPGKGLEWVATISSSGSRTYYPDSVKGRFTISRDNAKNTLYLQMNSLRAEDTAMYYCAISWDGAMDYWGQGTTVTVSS VL: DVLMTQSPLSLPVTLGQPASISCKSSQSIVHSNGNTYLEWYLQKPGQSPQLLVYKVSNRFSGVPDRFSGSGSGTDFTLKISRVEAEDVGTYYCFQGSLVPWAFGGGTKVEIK , please?
0.187

Could you do the same for VH1/Vk3 (antibody, V domains shown, member of the group m7; also called humanized IPN002 variant VH1/Vk3) VH: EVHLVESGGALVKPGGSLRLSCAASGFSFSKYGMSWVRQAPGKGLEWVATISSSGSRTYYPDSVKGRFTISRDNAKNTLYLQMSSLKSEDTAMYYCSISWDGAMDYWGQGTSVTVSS VL: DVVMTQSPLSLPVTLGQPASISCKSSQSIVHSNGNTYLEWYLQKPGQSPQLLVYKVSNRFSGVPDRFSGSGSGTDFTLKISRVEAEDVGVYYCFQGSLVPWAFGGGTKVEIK , please?
0.175

Could you do the same for VH1/Vk2 (antibody, V domains shown, member of the group m7; also called humanized IPN002 variant VH1/Vk2) VH: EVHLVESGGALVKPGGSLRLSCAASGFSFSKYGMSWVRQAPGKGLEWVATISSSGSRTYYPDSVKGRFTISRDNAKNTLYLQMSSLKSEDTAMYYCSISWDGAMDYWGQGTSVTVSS VL: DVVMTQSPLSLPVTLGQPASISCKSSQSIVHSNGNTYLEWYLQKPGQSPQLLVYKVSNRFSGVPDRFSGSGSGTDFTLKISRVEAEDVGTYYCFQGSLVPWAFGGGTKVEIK , please?
0.121

Could you do the same for VH4/Vk2 (antibody, V domains shown, member of the group m7; also called humanized IPN002 variant VH4/Vk2) VH: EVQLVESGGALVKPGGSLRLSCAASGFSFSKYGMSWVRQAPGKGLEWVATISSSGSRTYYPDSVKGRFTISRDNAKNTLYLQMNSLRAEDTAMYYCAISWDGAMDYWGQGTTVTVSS VL: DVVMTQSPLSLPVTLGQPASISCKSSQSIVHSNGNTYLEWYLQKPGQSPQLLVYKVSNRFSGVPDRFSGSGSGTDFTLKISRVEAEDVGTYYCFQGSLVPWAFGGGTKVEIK , please?
0.16

Could you do the same for VH3/Vk2 (antibody, V domains shown, member of the group m7; also called humanized IPN002 variant VH3/Vk2) VH: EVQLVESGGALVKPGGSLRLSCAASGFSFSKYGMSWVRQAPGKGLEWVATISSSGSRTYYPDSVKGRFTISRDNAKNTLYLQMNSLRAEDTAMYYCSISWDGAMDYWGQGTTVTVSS VL: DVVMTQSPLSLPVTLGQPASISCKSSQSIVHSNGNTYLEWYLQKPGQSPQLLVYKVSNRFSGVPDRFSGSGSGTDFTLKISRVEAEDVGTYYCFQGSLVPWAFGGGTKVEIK , please?
0.258

Could you do the same for VH3/Vk4 (antibody, V domains shown, member of the group m7; also called humanized IPN002 variant VH3/Vk4) VH: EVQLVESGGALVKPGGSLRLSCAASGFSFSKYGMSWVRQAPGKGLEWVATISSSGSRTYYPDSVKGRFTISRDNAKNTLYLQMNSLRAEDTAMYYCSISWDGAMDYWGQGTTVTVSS VL: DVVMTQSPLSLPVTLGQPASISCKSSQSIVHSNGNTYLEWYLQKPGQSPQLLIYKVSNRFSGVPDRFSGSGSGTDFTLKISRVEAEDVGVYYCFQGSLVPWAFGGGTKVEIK , please?
0.255
